biological target: Glucocorticoid receptor (Homo sapiens); assay: qHTS assay to identify small molecule antagonists of the glucocorticoid receptor (GR) signaling pathway (AID 720692); conditions: GR-bla HeLa, beta-lactamase FRET ratio, dexamethasone-stimulated, 18 h; series mostly up to 58.5 µM
Results filed as inconclusive are left out. Calls of active or inactive are those of the source. Calls follow the shape of the dose curve; as a rule, active = well fitted inhibition curve with a large enough effect in the signal ratio in the repeat runs (not every such curve was filed as active); inconclusive = weak or mixed curves, or effect the other way; inactive = no such curve, though single readings can be large or run the other way; the % refers to the signal ratio.
A correct response names exactly one class from active, inactive

Please review the entries below; each comes with its answer.
1) O=c1[nH]cnc2[nH]cc(CN3CCCCC3)c12 : inactive
2) CC(=O)O[C@H]1C[C@@]2(C)[C@@H](C[C@@H](O)[C@H]3[C@@]4(C)CC[C@@H](O)[C@@H](C)[C@@H]4CC[C@@]32C)/C1=C(\CCC=C(C)C)C(=O)O : inactive

Request: Name the outcome recorded for "COC(=O)C1=C(C)NC(C)=C(C(=O)O[C@H]2CCN(Cc3ccccc3)C2)[C@H]1c1cccc([N+](=O)[O-])c1" in the assay.
Response: active
